# Test system: HCT-116 colon
# experimentDescription: NCI-60 one-dose screen, 48 h (100 = growth as untreated, 0 = no growth, -100 = all killed)
# details: 10 µM unless noted
This is part of a sample that, as a whole, favours compounds with a hit. Of some 83,000 tested, about 20% had one in any assay.
measurementType: growth (%)
// return numeric value only (unit: %, not printed)

Guide cases for growth, answers given:
N=C(N)c1ccc(NCCNc2ccc(C(=N)N)cc2)cc1; 114
Cn1c(-c2ccccc2)cc(=O)n1-c1ccccc1; 100
COc1cc(OC)c(C(=O)/C=C/c2cccc(OC(C)=O)c2)cc1CC=C(C)C; 47.1
COc1ccccc1/C=C/C(=O)CCC(=O)O; 101
COc1cc(/C=C/c2cc(/C=C/c3ccc(O)c(OC)c3)n(C(=O)Nc3ccc(F)c(Cl)c3)n2)ccc1O; 2.15
COc1ccccc1-[n+]1cc(-c2ccc(-c3ccccc3)cc2)n2c1CCCCC2; 6.3
C=C1C(=O)O[C@H]2[C@H]1CC/C(COC(=O)NCc1[nH]nc3ccccc13)=C\CC[C@@]1(C)O[C@@H]21; -80.7
CC(C)CCSc1nc(-c2ccc(F)cc2)c(C#N)c(N2CCN(C)CC2)n1; 79

Ask | Query (compound): `COc1ccc2nc3ccccc3c(NCc3ccc(C)cc3)c2c1` ; field requested: growth
Reply | 8.58

Ask | Give the measured growth of `CCN1CCN(Cc2ccc(NC(=O)Nc3ccc(-n4ccc5c(NC(=O)c6ccccc6)nccc54)cc3)cc2C(F)(F)F)CC1` .
Reply | -83.6

---

Each entry below carries its reported growth.
# Test system: BT-549 breast
# experimentDescription: NCI-60 one-dose screen, 48 h (100 = growth as untreated, 0 = no growth, -100 = all killed)
# details: 10 µM unless noted
Compounds without any hit were thinned out: in the full panel of roughly 83,000, 20% have a hit.
Numbers only here, please. The scale is %.

Worked examples follow.
Cc1cccc2nc3ccccc3c(Nc3ccc(NS(C)(=O)=O)cc3)c12; 81.7
CC(CN1CCN(CC(C)Nc2ccnc3cc(Cl)ccc23)CC1)Nc1ccnc2cc(Cl)ccc12 (stereo unspecified); 10.8
N/C(=N\OC(=O)c1ccccc1)C(C(=O)NOC(=O)c1ccccc1)C1CCCCC1 (stereo unspecified); 74.4
COc1ccccc1/C=N\Nc1ccc([N+](=O)[O-])cn1; 101

Ask | Would you mind telling me what growth value was observed for O=C1CCCN1C1CCN2CCCc3cccc1c32 (stereo unspecified) ?
Reply | 134

Ask | Return reported growth; argument: `Cc1cc([N+](=O)[O-])c(C)cc1N`
Reply | 101

---

# Test system: SK-OV-3 ovarian
# experimentDescription: NCI-60 one-dose screen, 48 h
# details: 10 µM unless noted
This is part of a sample that, as a whole, favours compounds with a hit. Of some 83,000 tested, about 20% had one in any assay. Active and inactive are the calls of the source. The calls were made as follows: active = growth percent below 10; inactive = the rest.
Pick from active, inactive when you respond.

Solved cases below.
COc1cc(Nc2ncccc2/C=C/C(=O)c2cc(OC)c(OC)c(OC)c2)cc(OC)c1OC; inactive
C=CCOc1ccc2c(C)cc(=O)oc2c1; inactive
COc1ccc(-c2cc(C(=O)Nc3ccc(Br)cc3)nc3[nH]c(=O)sc23)cc1; inactive
COc1cc(OC)c(C(=O)/C=C/c2cccc(OC(C)=O)c2)cc1CC=C(C)C; inactive

Ask | Dear all, I need the recorded test outcome for `CCOC(=O)N1C2CCC(C2)N1C(=O)OCC` , thank you.
Reply | inactive

Ask | Hey, what did the test say about `O=C(Nc1ccc(Cl)cc1)c1cc(-c2ccc(Cl)cc2)c2sc(=O)[nH]c2n1` ?
Reply | active

---

# Tested on: ACHN renal
# experimentDescription: NCI-60 one-dose screen, 48 h (100 = growth as untreated, 0 = no growth, -100 = all killed)
# details: 10 µM unless noted
The panel holds about 83,000 compounds, 20% with a hit somewhere; the sample as a whole holds those more often.
measurementType: growth (%)
Give the number; % is assumed, so skip it.

CC(C)OC1OC(OC(C)C)C(OC(C)C)OC1OC(C)C (stereo not given); 95.1
Cc1csc(N/N=C/c2ccncc2)n1; 103
Nc1ncnc2c1N=C(c1ccc3c(c1)OCO3)CC(c1ccc(Cl)cc1)N2 (stereo not given); 77.8
COc1ccc(C(=O)OC2C(OC3C(O)COC(O[C@H]4C[C@H]5[C@@H]6CC=C7C[C@@H](O)CC[C@]7(C)[C@H]6CC[C@]5(C)[C@H]4[C@H](C)C(=O)CCC(C)C)C3OC(N)=O)OCC(O)C2O)cc1 (stereo not given in full); 40.5

Now look at this one.
Ask | Suppose we examine the compound `N#Cc1ccc(-c2ccc(-c3cccs3)o2)cc1F` ; what growth value has been reported?
Reply | 64

---

# System: U251 CNS
# experimentDescription: NCI-60 one-dose screen, 48 h
# details: 10 µM unless noted
This is part of a sample that, as a whole, favours compounds with a hit. Of some 83,000 tested, about 20% had one in any assay. Active and inactive are the calls of the source. How the source made its calls: active means growth percent below 10; inactive means the rest.
Hi! Could you answer with just one of these? yes (1) = active, no (0) = inactive

Example cases with answers are listed next.
COc1ccc(CNc2c3ccccc3nc3ccc(OC)cc23)cc1; no (0)
Cc1cc(-c2ccc(N=Nc3c(S(=O)(=O)O)cc4cc(S(=O)(=O)O)cc(O)c4c3O)c(C)c2)ccc1N=Nc1c(S(=O)(=O)O)cc2cc(S(=O)(=O)O)cc(O)c2c1O; no (0)
O=C(CCl)N1c2ccccc2Oc2ccc3ccccc3c21; yes (1)

Ask | Hi, do you know how C=C1C[C@@]2(C)C(CC[C@]3(C)C2CC=C2C4CC(C)(C)C[C@@H](OC(=O)/C(C)=C\C)[C@]4(C(=O)O)CC[C@]23C)C(C)(C)C1=O (some centres undefined) came out in this test?
Reply | yes (1)

Ask | Any idea what this test logged for `C(=Nc1ccc(-c2ccc(N=Cc3ccccc3)cc2)cc1)c1ccccc1` ?
Reply | no (0)

Ask | Dear all, I need the recorded test outcome for C=CCOC(=O)C1=C(C)NC2=C(C(=O)CC(C)(C)C2)C1c1ccc(OC)cc1 (centres undefined) , thank you.
Reply | no (0)

Ask | Which result was noted for this molecule in the test: `COc1cc(NC(=O)CSc2nc3ccc(Cl)cc3c(=O)n2Cc2ccccc2)cc(OC)c1OC`
Reply | no (0)

Ask | Hi, sorry to bother you, what did the test record for `NS(=O)(=O)c1ccc(CCn2c(SCC(=O)N/N=C/c3cc4ccccc4[nH]3)nc3ccccc3c2=O)cc1` ?
Reply | no (0)

---

# Test system: CAKI-1 renal
# experimentDescription: NCI-60 one-dose screen, 48 h (100 = growth as untreated, 0 = no growth, -100 = all killed)
# details: 10 µM unless noted
About 83,000 compounds went through this panel and 20% of them were active in at least one assay; those are over-represented in the sample as a whole.
The entries below come with measured growth values attached.
State just the number; it will be interpreted in %.

Field: example entries. Status: answers known.
O=C(CC(=O)c1cccc(Cl)c1)c1cccc(Cl)c1; 23.4
CCN(CC)c1ccc(/C=N/N=C(N)N)cc1; 45.1
CCC1=CC2CN(C1)Cc1c([nH]c3ccccc13)[C@@](C(=O)OC)(c1cc3c(cc1OC)N(C)[C@H]1[C@@](O)(C(=O)OC)[C@H](OC(C)=O)[C@]4(CC)C=CCN5CC[C@]31[C@@H]54)C2 (stereo not given in full); 44.3
COc1ccccc1/C=C/C(=O)CCC(=O)O; 99
Clc1ccc(-c2nc(-c3cccs3)no2)cc1; 99.5
CCN(C(=O)CCl)C(C)(C)C(SSSC(c1ccc(Cl)cc1)C(C)(C)N(CC)C(=O)CCl)c1ccc(Cl)cc1 (stereo not given); 29.1

Ask | Checklist item: growth tested on CAKI-1 renal, entry `Nc1c(Br)cc2c(c1Br)Cc1cc(Cl)ccc1-2` , value?
Reply | 74.6

Ask | What growth appears in the records for this compound with CAKI-1 renal? `Clc1cccc(CNc2c3ccccc3nc3ccccc23)c1`
Reply | 28.2

Ask | Notebook entry, CAKI-1 renal assay: growth of `Nc1c(C(=O)Nc2cccc(Cl)c2)sc2nc3c(cc12)C(=O)CCC3` = ?
Reply | 40.3

Ask | Find the measured growth: item `CCc1onc(-c2ccc(OC)cc2)c1-c1ccccc1OCCN(CC)CC` , target or system CAKI-1 renal.
Reply | 82.4

---

# Test system: HT29 colon
# experimentDescription: NCI-60 one-dose screen, 48 h (100 = growth as untreated, 0 = no growth, -100 = all killed)
# details: 10 µM unless noted
The panel holds about 83,000 compounds, 20% with a hit somewhere; the sample as a whole holds those more often.
Each entry below carries its reported growth.
I only need the number, in %, no unit after it.

// below: answered compounds
S=C(Cc1ccccc1)N1CCN(c2ccccc2Cl)CC1; 100
O/N=C/c1ccncc1; 94.5
CCCNCCC(C)=O; 98.1

Ask | Recorded growth of `O=c1nc(-c2ccccc2)c2cc(-c3ccc(N4CCOCC4)cc3)ccc2[nH]1` , please.
Reply | 84.5

Ask | Endpoint output: growth of `O=C(NNC(=O)c1cccc(Cl)c1)c1ccccc1` . Value?
Reply | 104

Ask | If you can, please state the reported growth value of NC(CCC(=O)NC(CS)C(=O)NCC(=O)O)C(=O)O (stereo unspecified) .
Reply | 106

Where do the numbers come from? From PubChem BioAssay (NCI).
